- EXPERIMENTAL_PROTOCOL: folding stability dG unfold from trypsin proteolysis; higher = more stable
Below, each entry is listed alongside its reported folding stability dG unfold.
Answer shape: numeric part, then the unit.

[[record]]
record_sequence = "SAGGSKLPKNSKVLIIDLGAPKGIKPNDKVKIPKELIKKIKEKNPNVKFYKEYNIGNKTYIFIVIDSAGGSA [r2_383_TrMRF]"
result = "1.31 kcal/mol"

[[record]]
record_sequence = "SAGGSAGGSAGPIIPPNFEVVDVFETETSYYILVKNPETGRYYVARYDPLTGKIEVFEVSSAGGSAGGSAGG [r11_896_TrMRF]"
result = "3.46 kcal/mol"

[[record]]
record_sequence = "SAGGSAGGSAGGSMVVEYDPETGVRTTTVALPSDSVEVTTEKIDPATGEVVETVTELAASAGGSAGGSAGGS [r4_415_JUSTAS]"
result = "-0.105 kcal/mol"

[[record]]
record_sequence = "SAGGSAGGSAGSSPSDLKVTLKVTLPDGTVLTVVMPAHATLDDFPADRPVTVTTLETKLESAGGSAGGSAGG [r11_997_JUSTAS]"
result = "1.66 kcal/mol"

[[record]]
record_sequence = "SAGGTRTIWFPVDDIREALPPDNIKKVEVEPVGPENNWYKVTIEFPDYKIEIQYYPEEPGMFMVTITDSAGG [r13_942_TrROS]"
result = "0.791 kcal/mol"

[[record]]
record_sequence = "SAGPVTIPIFYRVPPGEPMTPEAKEFAIELAKYIARLFPPGYKIEIDSIEWERHPNYYYFRVTIEIEPPSAG [r5_121_TrROS]"
result = "3.64 kcal/mol"


Quick one: folding stability dG unfold of SAGAGTVASPEEAEELVEELRAALPPEATITRDPTPEGGVRFTVRLPGEGRVLEMEFDPARDTTARRPESAG [r5_358_JUSTAS] ? -0.391 kcal/mol

Field entry: SAGGDDKWKIEIDIQPHDDYWVITARIRDPNGKERERMFMMPPDNIKKILNELPPEIEDIEVHRVPNSAGGS [r16_298_TrROS] 2.11 kcal/mol

Please give the result for SAGMTITIPAPPSLSPEEAVALAIERVKEEYPELLTPGSEVNIVVIREDPATGTSQTLTVTVPFPEGIFSAG [r5_916_JUSTAS] too. 1.98 kcal/mol

---

- EXPERIMENTAL_PROTOCOL: folding stability dG unfold from chymotrypsin proteolysis; higher = more stable
Cut-off 2 kcal/mol on folding stability dG unfold, inclusive. At or above means 1.0; below means 0.0.

[[record]]
record_sequence = "SAGGSAGGSAGGSNPVDIVEILSYDPEKNTYTFLVKLPDGSTKTITVPGLSVEEIKKELSAGGSAGGSAGGS [r4_357_JUSTAS]"
class_assignment = 1.0

[[record]]
record_sequence = "SAMTITVPPDVSLEQIAKLLGYPNLKSFTKRKVTPNLTPATLTVPEDPNKVIKVLYRPADNYTEVIVLQSAG [r14_713_JUSTAS]"
class_assignment = 0.0


Here is the next item to consider.
Test whether the sequence SAGGSAGGSAGMTITLPNGAEITSIEINEDGTITITVRVNGKTLTLTITVTLPPPPPEEPSAGGSAGGSAGG [r17_421_TrROS_Hall] records folding stability dG unfold of 2 kcal/mol or higher. 1.0

---

- EXPERIMENTAL_PROTOCOL: folding stability dG unfold (combined trypsin and chymotrypsin); higher = more stable
REPORTED_ENDPOINT: folding stability dG unfold (kcal/mol)
Return type: number; implicit unit kcal/mol.

The following sequences have reported results that may help.
[[record]]
record_sequence = "SAGKDGDPPKRVRIKFKIPLPGGKLYEVTQTFYPNGSVHVSIRFPNGWMLSAWIPPDGDIEIKIMPIKKSAG [r5_168_TrROS]"
numeric_result = 4

[[record]]
record_sequence = "SAGGSAGGSATVTVERVGNRLLLSFPDGSYYVAELPGEAEVDLASGKITLPANSRVEPVPLERSAGGSAGGS [r20_158_TrMRF]"
numeric_result = 0.743

[[record]]
record_sequence = "SAGGSAGGSKKKYTVEELLKKLKPGDIALVKINGKWREVSVEELKKLPPGAEVEVEVFKLKPPSAGGSAGGS [r12_501_TrROS_Hall]"
numeric_result = 3.34

[[record]]
record_sequence = "SAGGMTIPLEFEFESEEEAKEKAEEIAEELAKSFPEYEVEVKIEIKPVKDPNSDTTKWRVKMEITVGPSAGG [r13_545_JUSTAS]"
numeric_result = 4.56

[[record]]
record_sequence = "SAGPPVLALFTGSPEDVQELLDRLPPDFEVEVGRLPDLYVARFPPDVPPGTVLLPGADGRPAVVEVVEASAG [r5_123_TrMRF]"
numeric_result = 1.14


Please report the recorded folding stability dG unfold for SAGGSAFPTIAESPGVVKIEPLPDGTIKITFNTSEEAKEKIIEELKKLGNFNVEEDPEKPVLIVKKSAGGSA [r15_554_JUSTAS] . 2.6

What about this sequence? SAGGSAGGSAPPNDWYVGIMEITININIDADQLPPPLREKFEKNGIKEIRITFVSVFPPDDFSAGGSAGGSA [r18_127_TrROS] 3.14

Try the sequence SAGGSAGGSAGGPNNKPKPKQVTFDIEIEDIEIDPEHGLISIEIRFPDGGKEITARIPISAGGSAGGSAGGS [r10_427_TrROS] 0.276

Try this sequence next: MKTIEIEIKLSPEIKEALKEGKPLSLEELVNKIKEEIAKKLGLKEVKVKKIEIKKDENGEIIIKVTIEVKPS [r1_290_TrROS_Hall] 3.31

Lookup SLSEEEAKDNPEEANEKMQPPPVPPIPLPVPIRNPDNKQEFPAPFEIRTLPNHLEFRFPGNGKPFPVPIDSA [r9_548_TrROS] 2.63

// repeat for SAGGEEIEAEVVEVRTFTLENGFEVTTTLIRVDGKLILITSVKKTKNGKWEVVEVKELPLEELSPEELSAGG [r13_494_TrROS_Hall] and report 2.93

// same read-out, input: SAGGKIEVEPEVELYRTPDGRLVARPKPVKVKITLKLTITNENGEKKTIEVEADTPEEALAALKALSSAGGS [r8_440_TrROS_Hall] 0.965
